tgt: CDK13 (Homo sapiens, UniProt Q14004)
Construct: Immunoblotting of CDK12 and CDK13 in MDA-MB-231 cells treated with increasing concentrations of ZLC491 for 15 h; endogenous in cells; host or cells: MDA-MB-231
Sequence (Q14004 whole entry, one chain of several): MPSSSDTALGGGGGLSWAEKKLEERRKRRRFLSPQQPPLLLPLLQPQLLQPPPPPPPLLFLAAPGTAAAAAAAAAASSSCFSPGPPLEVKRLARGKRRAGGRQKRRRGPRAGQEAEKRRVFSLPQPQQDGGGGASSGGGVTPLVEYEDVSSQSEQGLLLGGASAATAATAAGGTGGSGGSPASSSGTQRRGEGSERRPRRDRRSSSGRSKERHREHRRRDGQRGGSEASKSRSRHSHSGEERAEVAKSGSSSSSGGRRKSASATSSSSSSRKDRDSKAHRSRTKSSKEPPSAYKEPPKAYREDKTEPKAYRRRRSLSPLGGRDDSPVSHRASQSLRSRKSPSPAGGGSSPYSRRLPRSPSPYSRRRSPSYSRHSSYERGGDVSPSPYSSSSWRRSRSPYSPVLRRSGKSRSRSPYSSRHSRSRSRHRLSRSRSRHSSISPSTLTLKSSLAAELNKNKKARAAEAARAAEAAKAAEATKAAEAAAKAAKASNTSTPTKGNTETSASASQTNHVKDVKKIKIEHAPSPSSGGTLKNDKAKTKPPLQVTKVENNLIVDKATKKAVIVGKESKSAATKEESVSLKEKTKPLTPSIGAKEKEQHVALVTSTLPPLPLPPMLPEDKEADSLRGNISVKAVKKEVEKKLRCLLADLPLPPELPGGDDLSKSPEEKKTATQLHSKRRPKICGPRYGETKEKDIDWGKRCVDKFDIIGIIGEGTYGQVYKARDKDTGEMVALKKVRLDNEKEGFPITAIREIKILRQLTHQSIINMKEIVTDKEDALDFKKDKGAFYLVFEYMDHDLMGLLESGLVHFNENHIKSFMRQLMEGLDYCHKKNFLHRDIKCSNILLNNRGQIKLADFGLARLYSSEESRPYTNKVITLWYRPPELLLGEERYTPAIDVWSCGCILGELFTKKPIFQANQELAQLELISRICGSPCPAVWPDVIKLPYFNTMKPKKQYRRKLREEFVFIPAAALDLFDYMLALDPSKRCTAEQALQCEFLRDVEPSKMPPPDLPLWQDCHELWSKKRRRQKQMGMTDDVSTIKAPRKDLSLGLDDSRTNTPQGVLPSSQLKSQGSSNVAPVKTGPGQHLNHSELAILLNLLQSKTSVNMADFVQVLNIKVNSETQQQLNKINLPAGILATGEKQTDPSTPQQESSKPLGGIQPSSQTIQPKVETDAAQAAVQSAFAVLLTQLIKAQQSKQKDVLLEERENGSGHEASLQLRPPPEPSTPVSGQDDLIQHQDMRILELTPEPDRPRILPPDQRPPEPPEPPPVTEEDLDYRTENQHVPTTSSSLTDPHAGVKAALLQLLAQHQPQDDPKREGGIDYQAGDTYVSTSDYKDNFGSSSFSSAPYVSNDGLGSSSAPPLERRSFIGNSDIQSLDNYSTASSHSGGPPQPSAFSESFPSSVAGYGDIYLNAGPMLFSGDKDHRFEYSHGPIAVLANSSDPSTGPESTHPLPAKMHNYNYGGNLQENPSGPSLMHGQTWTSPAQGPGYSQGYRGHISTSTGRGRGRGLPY
assay-notes: CDK13 degradation in MDA-MB-231 cells by immunoblotting;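 further: percent of CDK13 protein degraded relative to DMSO control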
Format: cell-based
conditions-used: MDA-MB-231 cells, 0.3 μM, 15 h, immunoblotting, normalized against α-tubulin
endpoint-name: Protein Degradation (%DMSO control, 0.3 μM) CDK13 (%)

# compound, tgt, unit, assay-value
measured = [
    ("N#Cc1ccc(N[C@H]2CC[C@H](N(C(=O)NCc3ccccc3)c3ccc(N4CCN(C(=O)C5CCN(c6ccc7c(c6)C(=O)N(C6CCC(=O)NC6=O)C7=O)C5)CC4)cc3)CC2)nc1 (stereo partly drawn)", "CDK13 (Homo sapiens, UniProt Q14004)", "%", 65),
    ("N#Cc1ccc(N[C@H]2CC[C@H](N(C(=O)NCc3ccccc3)c3ccc(N4CCN(CC5CCN(c6ccc7c(c6)C(=O)N(C6CCC(=O)NC6=O)C7=O)CC5)CC4)cc3)CC2)nc1 (stereo partly drawn)", "CDK13 (Homo sapiens, UniProt Q14004)", "%", 84),
    ("N#Cc1ccc(N[C@H]2CC[C@H](N(C(=O)NCc3ccccc3)c3ccc(N4CC(CN5CCN(c6ccc7c(c6)C(=O)N(C6CCC(=O)NC6=O)C7=O)CC5)C4)cc3)CC2)nc1 (stereo partly drawn)", "CDK13 (Homo sapiens, UniProt Q14004)", "%", 61),
]

---

tgt: UniProtKB Q9NYV4
Sequence (Q9NYV4 whole entry): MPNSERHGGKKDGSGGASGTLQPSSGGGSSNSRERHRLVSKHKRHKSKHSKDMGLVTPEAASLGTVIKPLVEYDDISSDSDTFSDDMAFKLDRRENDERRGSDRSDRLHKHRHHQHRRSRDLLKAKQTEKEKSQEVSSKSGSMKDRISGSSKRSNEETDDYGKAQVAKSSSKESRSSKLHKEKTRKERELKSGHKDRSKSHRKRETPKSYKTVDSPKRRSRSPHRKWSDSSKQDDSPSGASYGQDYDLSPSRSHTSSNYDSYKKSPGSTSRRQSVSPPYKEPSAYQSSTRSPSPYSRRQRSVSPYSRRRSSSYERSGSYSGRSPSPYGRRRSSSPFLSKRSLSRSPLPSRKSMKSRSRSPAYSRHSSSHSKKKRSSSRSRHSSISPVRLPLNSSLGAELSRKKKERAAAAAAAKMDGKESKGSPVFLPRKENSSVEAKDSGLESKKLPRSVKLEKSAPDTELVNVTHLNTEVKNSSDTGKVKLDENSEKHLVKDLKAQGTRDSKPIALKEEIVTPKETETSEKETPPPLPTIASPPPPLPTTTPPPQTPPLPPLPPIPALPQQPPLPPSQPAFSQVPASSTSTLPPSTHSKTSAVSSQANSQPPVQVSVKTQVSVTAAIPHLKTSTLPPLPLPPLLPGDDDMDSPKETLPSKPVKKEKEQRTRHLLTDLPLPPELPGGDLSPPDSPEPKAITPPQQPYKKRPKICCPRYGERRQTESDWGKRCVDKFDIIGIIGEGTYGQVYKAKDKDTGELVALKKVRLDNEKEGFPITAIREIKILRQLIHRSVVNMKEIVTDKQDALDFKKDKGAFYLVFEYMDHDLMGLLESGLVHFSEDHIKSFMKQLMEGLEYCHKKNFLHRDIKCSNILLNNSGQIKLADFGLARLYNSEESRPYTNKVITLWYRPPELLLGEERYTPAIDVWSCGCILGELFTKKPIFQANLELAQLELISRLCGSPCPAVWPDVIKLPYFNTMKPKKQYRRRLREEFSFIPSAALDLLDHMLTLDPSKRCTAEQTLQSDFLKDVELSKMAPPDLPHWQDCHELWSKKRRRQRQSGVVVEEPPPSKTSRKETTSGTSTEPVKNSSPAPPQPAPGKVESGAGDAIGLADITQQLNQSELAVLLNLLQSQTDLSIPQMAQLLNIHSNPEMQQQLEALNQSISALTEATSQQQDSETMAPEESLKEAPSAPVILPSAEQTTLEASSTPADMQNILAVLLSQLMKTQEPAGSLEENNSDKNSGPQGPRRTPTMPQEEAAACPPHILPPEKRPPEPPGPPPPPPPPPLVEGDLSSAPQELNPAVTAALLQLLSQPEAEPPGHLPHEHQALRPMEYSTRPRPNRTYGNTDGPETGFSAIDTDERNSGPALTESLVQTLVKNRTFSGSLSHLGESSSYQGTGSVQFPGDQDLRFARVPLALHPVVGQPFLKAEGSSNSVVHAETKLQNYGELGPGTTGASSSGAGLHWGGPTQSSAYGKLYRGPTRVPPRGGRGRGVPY
Sequence (O75909 whole entry partner): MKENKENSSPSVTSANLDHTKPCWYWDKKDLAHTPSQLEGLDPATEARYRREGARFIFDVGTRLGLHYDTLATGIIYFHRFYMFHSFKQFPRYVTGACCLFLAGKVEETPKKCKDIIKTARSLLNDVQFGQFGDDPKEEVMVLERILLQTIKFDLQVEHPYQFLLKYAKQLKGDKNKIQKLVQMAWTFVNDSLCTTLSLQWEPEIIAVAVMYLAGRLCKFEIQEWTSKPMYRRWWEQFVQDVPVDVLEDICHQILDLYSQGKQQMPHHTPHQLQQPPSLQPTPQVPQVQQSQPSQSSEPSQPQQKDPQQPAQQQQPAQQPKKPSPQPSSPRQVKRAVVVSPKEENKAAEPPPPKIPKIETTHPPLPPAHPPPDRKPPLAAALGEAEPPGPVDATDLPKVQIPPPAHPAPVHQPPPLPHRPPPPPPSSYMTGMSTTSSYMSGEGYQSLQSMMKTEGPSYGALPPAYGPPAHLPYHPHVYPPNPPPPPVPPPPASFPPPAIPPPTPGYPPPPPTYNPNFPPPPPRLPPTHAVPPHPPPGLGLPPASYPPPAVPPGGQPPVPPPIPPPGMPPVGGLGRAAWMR
assay-notes: CDK12 degradation in MDA-MB-231 cells by immunoblotting
Format: cell-based
Set-up: Immunoblotting of CDK12 and CDK13 in MDA-MB-231 cells treated with increasing concentrations of ZLC491 for 15 h; endogenous in cells; host or cells: MDA-MB-231
conditions-used: supplementary CSV; 0.3 μM
endpoint-name: Degradation rates of CDK12 at 0.3 μM (%)

# molecule, endpoint-name, assay-value
measured = [
    ("N#Cc1ccc(N[C@H]2CC[C@H](N(C(=O)NCc3ccccc3)c3ccc(N4CCN(C(=O)C5CN(c6ccc7c(c6)C(=O)N(C6CCC(=O)NC6=O)C7=O)C5)CC4)cc3)CC2)nc1 (some centres unmarked) [4a]", "Degradation rates of CDK12 at 0.3 μM", 35),
    ("N#Cc1ccc(N[C@H]2CC[C@H](N(C(=O)NCc3ccccc3)c3ccc(N4CCN(C5CCN(c6ccc7c(c6)C(=O)N(C6CCC(=O)NC6=O)C7=O)CC5)CC4)cc3)CC2)nc1 (some centres unmarked) [4m]", "Degradation rates of CDK12 at 0.3 μM", 70),
    ("N#Cc1ccc(N[C@H]2CC[C@H](N(C(=O)NCc3ccccc3)c3ccc(N4CCN(C(=O)C5CCN(c6ccc7c(c6)C(=O)N(C6CCC(=O)NC6=O)C7=O)C5)CC4)cc3)CC2)nc1 (some centres unmarked) [4b]", "Degradation rates of CDK12 at 0.3 μM", 61),
    ("N#Cc1ccc(N[C@H]2CC[C@H](N(C(=O)NCc3ccccc3)c3ccc(N4CCC(CN5CCN(c6ccc7c(c6)C(=O)N(C6CCC(=O)NC6=O)C7=O)CC5)CC4)cc3)CC2)nc1 (some centres unmarked) [4j]", "Degradation rates of CDK12 at 0.3 μM", 49),
    ("N#Cc1ccc(N[C@H]2CC[C@H](N(C(=O)NCc3ccccc3)c3ccc(N4CCN(CC5CN(c6ccc7c(c6)C(=O)N(C6CCC(=O)NC6=O)C7=O)C5)CC4)cc3)CC2)nc1 (some centres unmarked) [4d]", "Degradation rates of CDK12 at 0.3 μM", 60),
    ("N#Cc1ccc(N[C@H]2CC[C@H](N(C(=O)NCc3ccccc3)c3ccc(N4CCN(CC5CCN(c6cc7c(cc6F)C(=O)N(C6CCC(=O)NC6=O)C7=O)CC5)CC4)cc3)CC2)nc1 (some centres unmarked) [4g-F]", "Degradation rates of CDK12 at 0.3 μM", 53),
    ("N#Cc1ccc(N[C@H]2CC[C@H](N(C(=O)NCc3ccccc3)c3ccc(N4CCC5(CC4)CN(c4ccc6c(c4)C(=O)N(C4CCC(=O)NC4=O)C6=O)C5)cc3)CC2)nc1 (some centres unmarked) [4n]", "Degradation rates of CDK12 at 0.3 μM", 63),
    ("N#Cc1ccc(N[C@H]2CC[C@H](N(C(=O)NCc3ccccc3)c3ccc(N4CC(CN5CCN(c6ccc7c(c6)C(=O)N(C6CCC(=O)NC6=O)C7=O)CC5)C4)cc3)CC2)nc1 (some centres unmarked) [4h]", "Degradation rates of CDK12 at 0.3 μM", 37),
    ("N#Cc1ccc(N[C@H]2CC[C@H](N(C(=O)NCc3ccccc3)c3ccc(N4CCN(CC5CCN(c6ccc7c(c6)C(=O)N(C6CCC(=O)NC6=O)C7=O)CC5)CC4)cc3)CC2)nc1 (some centres unmarked) [4g]", "Degradation rates of CDK12 at 0.3 μM", 74),
]

A = N#Cc1ccc(N[C@H]2CC[C@H](N(C(=O)NCc3ccccc3)c3ccc(N4CCC(CN5CCN(c6ccc7c(c6)C(=O)N(C6CCC(=O)NC6=O)C7=O)CC5)C4)cc3)CC2)nc1 (some centres unmarked) [4i]
B = N#Cc1ccc(N[C@H]2CC[C@H](N(C(=O)NCc3ccccc3)c3ccc(N4CCN(C[C@H]5CCN(c6ccc7c(c6)C(=O)N(C6CCC(=O)NC6=O)C7=O)C5)CC4)cc3)CC2)nc1 (some centres unmarked) [4f]
Query string: Given the listed records, identify the one among A and B with higher Degradation rates of CDK12 at 0.3 μM. Return value: the label identifying the chosen record.
Result string: B
